biological target: Endothelin receptor (Rattus norvegicus, UniProt P26684+P21451); experiment: Inhibitory potency at native endothelin A and B receptors by inhibiting sarafotoxin Sf6 contractions of rat tracheal rings; format: functional
Measured Property: pA2

CCCCc1cccc([C@]2([C@H](Oc3nc(C)cc(C)n3)C(=O)O)NCC(=O)N(Cc3c(F)cc(F)cc3F)c3ccccc32)c1 (racemic); 7.72
Cc1cc(C)nc(O[C@H](C(=O)O)[C@@]2(c3cccc(-c4ccccc4)c3)NCC(=O)N(Cc3c(Cl)cccc3Cl)c3ccccc32)n1 (racemic); 7.37
CCCCc1cccc([C@]2([C@H](Oc3nc(C)cc(C)n3)C(=O)O)NCC(=O)N(Cc3c(C)cc(C)cc3C)c3ccccc32)c1 (racemic); 7.44
COC(c1ccccc1)(c1ccccc1)[C@H](Oc1nc(C)cc(C)n1)C(=O)O (racemic) [AMBRISENTAN]; 5.63
Cc1cc(C)nc(O[C@H](C(=O)O)[C@@]2(c3ccccc3)NCC(=O)N(Cc3c(F)cc(F)cc3F)c3ccccc32)n1 (racemic); 6.18
Cc1cc(C)cc(O[C@H](C(=O)O)[C@@]2(c3ccccc3)NCC(=O)N(Cc3c(F)cccc3Cl)c3ccccc32)c1 (racemic); 6.89
CCCCc1cccc([C@]2([C@H](Oc3nc(C)cc(C)n3)C(=O)O)NCC(=O)N(Cc3c(F)cccc3Cl)c3ccccc32)c1 (racemic); 7.88
Cc1cc(C)cc(O[C@H](C(=O)O)[C@@]2(c3ccccc3)NCC(=O)N(Cc3c(F)cc(F)cc3F)c3ccccc32)c1 (racemic); 7.02
Cc1cc(C)nc(O[C@H](C(=O)O)[C@@]2(c3cccc(-c4ccccc4)c3)NCC(=O)N(Cc3c(F)cc(F)cc3F)c3ccccc32)n1 (racemic); 7.07

====

target: Endothelin receptor type B (Homo sapiens); experiment: Antagonist activity towards human recombinant Endothelin B receptor expressed in chinese hamster ovary (CHO) cells determined using [125I]ET1 as radioligand
Sequence (P24530 whole entry): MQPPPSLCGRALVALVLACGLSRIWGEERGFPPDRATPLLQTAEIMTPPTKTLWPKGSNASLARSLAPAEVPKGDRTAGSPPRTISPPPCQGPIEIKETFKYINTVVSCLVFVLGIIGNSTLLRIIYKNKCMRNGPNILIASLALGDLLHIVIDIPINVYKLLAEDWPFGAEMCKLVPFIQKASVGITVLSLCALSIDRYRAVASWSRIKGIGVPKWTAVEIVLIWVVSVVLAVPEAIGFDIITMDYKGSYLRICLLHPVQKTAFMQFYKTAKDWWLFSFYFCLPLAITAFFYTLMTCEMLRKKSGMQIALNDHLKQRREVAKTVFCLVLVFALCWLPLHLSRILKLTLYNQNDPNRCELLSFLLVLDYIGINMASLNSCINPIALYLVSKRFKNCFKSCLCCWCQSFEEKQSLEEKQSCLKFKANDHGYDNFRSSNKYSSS
Measured Property: IC50 (nM)

Cc1cc(C)nc(O[C@H](C(=O)O)[C@@]2(c3ccccc3)NCC(=O)N(C)c3ccccc32)n1 (racemic); 184
Cc1cc(C)nc(O[C@H](C(=O)O)[C@@]2(c3ccccc3)NCC(=O)N(Cc3ccc(-c4ccccc4)cc3)c3ccccc32)n1 (racemic); 534
COc1ccc(CN2C(=O)CN[C@](c3ccccc3F)([C@H](Oc3nc(C)cc(C)n3)C(=O)O)c3ccccc32)cc1 (racemic); 80.2
Cc1cc(C)nc(O[C@H](C(=O)O)[C@@]2(c3ccccc3)NCC(=O)N(Cc3cccc(OC(F)(F)F)c3)c3ccccc32)n1 (racemic); 30.8
Cc1cc(C)nc(O[C@H](C(=O)O)[C@@]2(c3ccccc3)NCC(=O)N(Cc3ccc(C(F)(F)F)cc3)c3ccccc32)n1 (racemic); 47.1
COc1cc(OC)cc(O[C@H](C(=O)O)[C@@]2(c3ccccc3)NCC(=O)N(C)c3cc(OC)ccc32)c1 (racemic); 7780

====

biological target: Endothelin-1 receptor (Homo sapiens, UniProt P25101); assay: Antagonist activity towards human recombinant Endothelin A receptor expressed in chinese hamster ovary (CHO) cells determined using [125I]ET1 as radioligand
Sequence (P25101 whole entry): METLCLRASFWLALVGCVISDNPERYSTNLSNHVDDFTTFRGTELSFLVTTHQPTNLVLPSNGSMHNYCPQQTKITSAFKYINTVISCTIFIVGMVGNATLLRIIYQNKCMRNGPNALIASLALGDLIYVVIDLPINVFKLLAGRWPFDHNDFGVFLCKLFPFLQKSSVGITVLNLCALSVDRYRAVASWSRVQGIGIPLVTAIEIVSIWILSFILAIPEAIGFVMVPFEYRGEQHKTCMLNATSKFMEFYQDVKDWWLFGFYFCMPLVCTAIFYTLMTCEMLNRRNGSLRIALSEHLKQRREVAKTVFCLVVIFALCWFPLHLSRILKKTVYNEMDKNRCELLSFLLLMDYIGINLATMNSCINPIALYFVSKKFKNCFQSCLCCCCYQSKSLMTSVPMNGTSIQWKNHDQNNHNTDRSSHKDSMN
Entries and their log10 of IC50
Measured Property: log10 of IC50 (log10 of the value in nM)

Cc1cc(C)nc(O[C@H](C(=O)O)[C@@]2(c3ccccc3)NCC(=O)N(Cc3cccc(C(F)(F)F)c3)c3ccccc32)n1 (racemic); 0.96
CCCCc1ccc(CN2C(=O)CN[C@](c3ccccc3)([C@H](Oc3nc(C)cc(C)n3)C(=O)O)c3ccccc32)cc1 (racemic); 0.54
Cc1cc(C)nc(O[C@H](C(=O)O)[C@@]2(c3ccccc3)NCC(=O)N(CCc3ccccc3)c3ccccc32)n1 (racemic); 0.59
Cc1cc(C)nc(O[C@H](C(=O)O)[C@@]2(c3ccccc3)NCC(=O)N(Cc3ccc(Br)cc3)c3ccccc32)n1 (racemic); 1.41
COc1ccc(CN2C(=O)CN[C@](c3cc(C)cc(C)c3)([C@H](Oc3nc(C)cc(C)n3)C(=O)O)c3ccccc32)cc1 (racemic); 2.44
Cc1cc(C)cc(O[C@H](C(=O)O)[C@@]2(c3ccccc3)NCC(=O)N(Cc3c(F)cccc3Cl)c3ccccc32)c1 (racemic); 1.28
COc1cc(OC)nc(O[C@H](C(=O)O)[C@@]2(c3ccccc3)NCC(=O)N(C)c3ccccc32)n1 (racemic); 1.37
Cc1cc(C)cc(O[C@H](C(=O)O)[C@@]2(c3ccccc3)NCC(=O)N(Cc3c(F)cc(F)cc3F)c3ccccc32)c1 (racemic); 1.24
Cc1cc(C)c(CN2C(=O)CN[C@](c3ccccc3)([C@H](Oc3nc(C)cc(C)n3)C(=O)O)c3ccccc32)c(C)c1 (racemic); 0.83
O=C(O)[C@@H](Oc1cccc(Cl)c1)[C@@]1(c2ccccc2)NCC(=O)N(Cc2c(Cl)cccc2Cl)c2ccccc21 (racemic); 2.00
Cc1cc(C)nc(O[C@H](C(=O)O)[C@@]2(c3ccccc3)NCC(=O)N(Cc3ccc(OC(F)(F)F)cc3)c3ccccc32)n1 (racemic); 0.40
CCCCc1cccc([C@]2([C@H](Oc3nc(C)cc(C)n3)C(=O)O)NCC(=O)N(Cc3c(C)cc(C)cc3C)c3ccccc32)c1 (racemic); 1.26
COc1cc(OC)cc(O[C@H](C(=O)O)[C@@]2(c3ccccc3)NCC(=O)N(C)c3cc(Cl)ccc32)c1 (racemic); 3.58

====

target: Endothelin receptor type B (Homo sapiens); assay: Antagonist activity towards human recombinant Endothelin B receptor expressed in chinese hamster ovary (CHO) cells determined using [125I]ET1 as radioligand
pIC50: −log10 of the molar value.
Measured Property: pIC50

Cc1cc(C)nc(O[C@H](C(=O)O)[C@@]2(c3ccccc3)NCCCc3ccccc32)n1 (racemic); 5.11
COc1ccc(CN2C(=O)CN[C@](C3CCCCC3)([C@H](Oc3nc(C)cc(C)n3)C(=O)O)c3ccccc32)cc1 (racemic); 6.98
Cc1cc(C)c(CN2C(=O)CN[C@](c3ccccc3)([C@H](Oc3nc(C)cc(C)n3)C(=O)O)c3ccccc32)c(C)c1 (racemic); 7.81
Cc1cc(C)cc(O[C@H](C(=O)O)[C@@]2(c3ccccc3)NCC(=O)N(Cc3c(Cl)cccc3Cl)c3ccccc32)c1 (racemic); 6.96
Cc1cc(C)nc(O[C@H](C(=O)O)[C@@]2(c3ccccc3)NCC(=O)N(Cc3c(Cl)cccc3Cl)c3ccccc32)n1 (racemic); 8.18
Cc1cc(C)nc(O[C@H](C(=O)O)[C@@]2(c3ccccc3)NCc3c(C(=O)O)nc(C)n3-c3ccccc32)n1 (racemic); 6.15
Cc1cc(C)nc(O[C@H](C(=O)O)[C@@]2(c3ccccc3)NCC(=O)N(Cc3c(F)c(F)c(F)c(F)c3F)c3ccccc32)n1 (racemic); 7.54
Cc1cc(C)nc(O[C@H](C(=O)O)[C@@]2(c3ccccc3)NCC(=O)N(CCN(C)C)c3ccccc32)n1 (racemic); 5.75
Cc1cc(C)nc(O[C@H](C(=O)O)[C@@]2(c3ccccc3)NCC(=O)N(Cc3nn[nH]n3)c3ccccc32)n1 (racemic); 7.18
COc1cc(OC)cc(O[C@H](C(=O)O)[C@@]2(c3ccccc3)NCC(=O)N(C)c3ccc(Cl)cc32)c1 (racemic); 5.74
Cc1cc(C)nc(O[C@H](C(=O)O)[C@@]2(c3ccccc3)NCC(=O)N(Cc3ccc(Cl)cc3)c3ccccc32)n1 (racemic); 6.91
Cc1cc(C)nc(O[C@H](C(=O)O)[C@@]2(c3ccccc3)NCC(=O)N(Cc3cc(F)c(F)cc3F)c3ccccc32)n1 (racemic); 7.14
Cc1cc(C)nc(O[C@H](C(=O)O)[C@@]2(c3ccccc3)NCC(=O)N(Cc3ccccc3F)c3ccccc32)n1 (racemic); 7.48
O=C(O)[C@@H](Oc1cccc(Cl)c1)[C@@]1(c2ccccc2)NCC(=O)N(Cc2c(Cl)cccc2Cl)c2ccccc21 (racemic); 5.50
CCc1cccc([C@]2([C@H](Oc3nc(C)cc(C)n3)C(=O)O)NCC(=O)N(Cc3ccc(OC)cc3)c3ccccc32)c1 (racemic); 7.17
Cc1cc(C)nc(O[C@H](C(=O)O)[C@@]2(c3ccccc3)NCC(=O)N(CCCC(=O)O)c3ccccc32)n1 (racemic); 6.60
O=C(O)[C@@H](Oc1ccccc1)[C@@]1(c2ccccc2)NCC(=O)N(Cc2c(Cl)cccc2Cl)c2ccccc21 (racemic); 5.43
Cc1cc(C)nc(O[C@H](C(=O)O)[C@@]2(c3cccc(-c4ccccc4)c3)NCC(=O)N(Cc3c(Cl)cccc3Cl)c3ccccc32)n1 (racemic); 7.60
COc1ccc(CN2C(=O)CN[C@](c3cccc(F)c3)([C@H](Oc3nc(C)cc(C)n3)C(=O)O)c3ccccc32)cc1 (racemic); 7.31
Cc1cc(C)nc(O[C@H](C(=O)O)[C@@]2(c3ccccc3)NCC(=O)N(Cc3cc(F)cc(F)c3)c3ccccc32)n1 (racemic); 7.88
Cc1cc(C)cc(O[C@H](C(=O)O)[C@@]2(c3ccccc3)NCC(=O)N(Cc3c(F)cccc3Cl)c3ccccc32)c1 (racemic); 6.74
COc1ccc(CN2C(=O)CN[C@](c3cccc(OC)c3)([C@H](Oc3nc(C)cc(C)n3)C(=O)O)c3ccccc32)cc1 (racemic); 7.03
COc1cnc(O[C@H](C(=O)O)[C@@]2(c3ccccc3)NCC(=O)N(C)c3ccccc32)nc1 (racemic); 5.03
Cc1cc(C)nc(O[C@H](C(=O)O)[C@@]2(c3ccccc3)NCC(=O)N(Cc3cccc(Br)c3)c3ccccc32)n1 (racemic); 7.59
Cc1cc(C)nc(O[C@H](C(=O)O)[C@@]2(c3ccccc3)NCC(=O)N(Cc3c(F)cccc3F)c3ccccc32)n1 (racemic); 7.75
Cc1ccc(O[C@H](C(=O)O)[C@@]2(c3ccccc3)NCC(=O)N(Cc3c(Cl)cccc3Cl)c3ccccc32)cc1 (racemic); 6.02
